# Target: T1, ECF12_807
# T1 chain: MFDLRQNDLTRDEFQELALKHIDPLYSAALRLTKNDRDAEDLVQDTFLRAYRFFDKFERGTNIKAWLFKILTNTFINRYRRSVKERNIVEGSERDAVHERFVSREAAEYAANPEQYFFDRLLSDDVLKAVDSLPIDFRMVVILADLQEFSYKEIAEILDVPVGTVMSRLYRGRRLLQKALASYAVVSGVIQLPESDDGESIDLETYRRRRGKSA
# fold repression per record follows
# answer = number (no unit)

INSERT INTO results (binder, numeric_value) VALUES
  ('AS01_3473 (protein) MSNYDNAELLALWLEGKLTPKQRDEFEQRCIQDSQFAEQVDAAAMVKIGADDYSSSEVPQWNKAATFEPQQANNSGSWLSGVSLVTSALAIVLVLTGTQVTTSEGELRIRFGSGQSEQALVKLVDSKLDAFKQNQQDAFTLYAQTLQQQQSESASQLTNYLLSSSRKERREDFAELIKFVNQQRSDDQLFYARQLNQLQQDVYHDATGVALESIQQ', 3.57),
  ('AS37_2513 (protein) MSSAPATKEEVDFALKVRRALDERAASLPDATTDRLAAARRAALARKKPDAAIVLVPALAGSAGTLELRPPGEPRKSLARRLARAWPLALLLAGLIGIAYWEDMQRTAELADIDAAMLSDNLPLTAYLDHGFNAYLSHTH', 9.33);

Below: the item to evaluate.
Prompt line: Any idea what fold repression was measured for AS04_1609 (protein) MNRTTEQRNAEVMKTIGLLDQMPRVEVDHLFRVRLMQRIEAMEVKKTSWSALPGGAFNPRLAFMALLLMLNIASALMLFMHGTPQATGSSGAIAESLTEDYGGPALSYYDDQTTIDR ?
Response line: 5.09
